Values compiled from patent US6420147B1.

# Test system: Strain 103Nt.4
# ASSAY NOTES: Antibiotic sensitivity (susceptibility test disks on Medium A agar)
# Format: cell-based
# CONDITION CONTEXT: antibiotic disks (contents in Appendix C), 37° C., up to 14 days
Positions of bridges follow the written chain, without caps; N, C: chain ends. Non-standard residues stand in square brackets, D forms with d. Residues, ends and D or L forms follow the SMILES beside them. *: point of attachment. Ileψ(thiazoline)Cys = CC[C@H](C)[C@H](N)C1=N[C@H](C(=O)*)CS1; dOrn = NCCC[C@@H](N)C(=O)O
QUANTITY: Inhibition of growth by antibiotic

- MOLECULE: "CC[C@H]1OC(=O)[C@H](C)[C@@H](O[C@H]2C[C@@](C)(OC)[C@@H](O)[C@H](C)O2)[C@H](C)[C@@H](O[C@@H]2O[C@H](C)C[C@H](N(C)C)[C@H]2O)[C@](C)(O)C[C@@H](C)C(=O)[C@H](C)[C@@H](O)[C@]1(C)O"
  ASSAYED SYSTEM: "Strain 103Nt.4"
  Inhibition of growth by antibiotic: "not inhibited"
- MOLECULE: "COc1cccc(OC)c1C(=O)N[C@@H]1C(=O)N2[C@@H]1SC(C)(C)[C@@H]2C(=O)O"
  ASSAYED SYSTEM: "Strain 103Nt.4"
  Inhibition of growth by antibiotic: "not inhibited"
- MOLECULE: "[H]/N=C(/N)N[C@H]1[C@H](O)[C@@H](O)[C@H](O[C@@H]2O[C@@H](C)[C@](O)(C=O)[C@H]2O[C@@H]2O[C@@H](CO)[C@H](O)[C@@H](O)[C@@H]2NC)[C@@H](N/C(N)=N\\[H])[C@@H]1O"
  ASSAYED SYSTEM: "Strain 103Nt.4"
  Inhibition of growth by antibiotic: "inhibited"
- MOLECULE: "CO[C@@H]1[C@@H](OC(N)=O)[C@@H](O)[C@H](Oc2ccc3c(O)c(NC(=O)c4ccc(O)c(CC=C(C)C)c4)c(=O)oc3c2C)OC1(C)C"
  ASSAYED SYSTEM: "Strain 103Nt.4"
  Inhibition of growth by antibiotic: "inhibited"
- MOLECULE: "Cc1cc(NS(=O)(=O)c2ccc(N)cc2)no1"
  ASSAYED SYSTEM: "Strain 103Nt.4"
  Inhibition of growth by antibiotic: "inhibited"
- MOLECULE: "CC1(C)S[C@@H]2[C@H](NC(=O)Cc3ccccc3)C(=O)N2[C@H]1C(=O)O"
  ASSAYED SYSTEM: "Strain 103Nt.4"
  Inhibition of growth by antibiotic: "inhibited"
- MOLECULE: "COc1cc(Cc2cnc(N)nc2N)cc(OC)c1OC"
  ASSAYED SYSTEM: "Strain 103Nt.4"
  Inhibition of growth by antibiotic: "inhibited"
- MOLECULE: "CC[C@H](C)[C@H](N)C1=N[C@H](C(=O)N[C@@H](CC(C)C)C(=O)N[C@H](CCC(=O)O)C(=O)N[C@H](C(=O)N[C@H]2CCCCNC(=O)[C@H](CC(N)=O)NC(=O)[C@@H](CC(=O)O)NC(=O)[C@H](Cc3cnc[nH]3)NC(=O)[C@@H](Cc3ccccc3)NC(=O)[C@H]([C@@H](C)CC)NC(=O)[C@@H](CCCN)NC2=O)[C@@H](C)CC)CS1 [bacitracin] ({Ileψ(thiazoline)Cys}-L[dE]IK[dOrn]I[dF]H[dD]N; lactam 4-C)"
  ASSAYED SYSTEM: "Strain 103Nt.4"
  Inhibition of growth by antibiotic: "not inhibited"

# Inhibition of growth by antibiotic measured on Strain 103Nt.4 for item `CO[C@H]1C[C@H](O[C@H]2[C@H](C)[C@@H](O[C@@H]3O[C@H](C)C[C@H](N(C)C)[C@H]3O)[C@@H](C)C[C@@]3(CO3)C(=O)[C@H](C)[C@@H](O)[C@@H](C)[C@@H](C)OC(=O)[C@@H]2C)O[C@@H](C)[C@@H]1O` = not inhibited

# Inhibition of growth by antibiotic measured on Strain 103Nt.4 for item `CC1(C)S[C@@H]2[C@H](NC(=O)[C@H](N)c3ccccc3)C(=O)N2[C@H]1C(=O)O` = inhibited

# Inhibition of growth by antibiotic measured on Strain 103Nt.4 for item `O=C(N[C@H](CO)[C@H](O)c1ccc([N+](=O)[O-])cc1)C(Cl)Cl` = not inhibited

# Inhibition of growth by antibiotic measured on Strain 103Nt.4 for item `CN[C@H](CC(C)C)C(=O)N[C@H]1C(=O)N[C@@H](CC(N)=O)C(=O)N[C@H]2C(=O)N[C@H]3C(=O)N[C@H](C(=O)N[C@H](C(=O)O)c4cc(O)cc(O)c4-c4cc3ccc4O)[C@H](O)c3ccc(c(Cl)c3)Oc3cc2cc(c3O[C@@H]2O[C@H](CO)[C@@H](O)[C@H](O)[C@H]2O[C@H]2C[C@](C)(N)[C@H](O)[C@H](C)O2)Oc2ccc(cc2Cl)[C@H]1O` = not inhibited

# Inhibition of growth by antibiotic measured on Strain 103Nt.4 for item `CO[C@H]1/C=C/O[C@@]2(C)Oc3c(C)c(O)c4c(O)c(c(/C=N/N5CCN(C)CC5)c(O)c4c3C2=O)NC(=O)/C(C)=C\C=C\[C@H](C)[C@H](O)[C@@H](C)[C@@H](O)[C@@H](C)[C@H](OC(C)=O)[C@@H]1C` = not inhibited

# Inhibition of growth by antibiotic measured on Strain 103Nt.4 for item `CC(=O)O[C@H]1C[C@@]2(C)[C@@H](C[C@@H](O)[C@H]3[C@@]4(C)CC[C@@H](O)[C@@H](C)[C@@H]4CC[C@@]32C)/C1=C(\CCC=C(C)C)C(=O)O` = not inhibited

# Inhibition of growth by antibiotic measured on Strain 103Nt.4 for item `CCn1cc(C(=O)O)c(=O)c2ccc(C)nc21` = inhibited

====

# System: Strain 86M.4
# ASSAY NOTES: Antibiotic sensitivity (susceptibility test disks on Medium A agar)
# Type: cell-based
# CONDITION CONTEXT: antibiotic disks (contents in Appendix C), 37° C., up to 14 days
Positions of bridges follow the written chain, without caps; N, C: chain ends. Non-standard residues stand in square brackets, D forms with d. Residues, ends and D or L forms follow the SMILES beside them. *: point of attachment. Ileψ(thiazoline)Cys = CC[C@H](C)[C@H](N)C1=N[C@H](C(=O)*)CS1; dOrn = NCCC[C@@H](N)C(=O)O
QUANTITY: Inhibition of growth by antibiotic

- COMPOUND: "NC[C@H]1O[C@H](O[C@H]2[C@H](O)[C@@H](O[C@H]3O[C@H](CO)[C@@H](O)[C@H](N)[C@H]3O)[C@H](N)C[C@@H]2N)[C@H](O)[C@@H](O)[C@@H]1O"
  Inhibition of growth by antibiotic: "not inhibited"
- COMPOUND: "CN(C)[C@@H]1C(O)=C(C(N)=O)C(=O)[C@@]2(O)C(O)=C3C(=O)c4c(O)cccc4[C@@](C)(O)[C@H]3C[C@@H]12"
  Inhibition of growth by antibiotic: "not inhibited"
- COMPOUND: "CO[C@@H]1[C@@H](OC(N)=O)[C@@H](O)[C@H](Oc2ccc3c(O)c(NC(=O)c4ccc(O)c(CC=C(C)C)c4)c(=O)oc3c2C)OC1(C)C"
  Inhibition of growth by antibiotic: "inhibited"
- COMPOUND: "CC[C@H](C)[C@H](N)C1=N[C@H](C(=O)N[C@@H](CC(C)C)C(=O)N[C@H](CCC(=O)O)C(=O)N[C@H](C(=O)N[C@H]2CCCCNC(=O)[C@H](CC(N)=O)NC(=O)[C@@H](CC(=O)O)NC(=O)[C@H](Cc3cnc[nH]3)NC(=O)[C@@H](Cc3ccccc3)NC(=O)[C@H]([C@@H](C)CC)NC(=O)[C@@H](CCCN)NC2=O)[C@@H](C)CC)CS1 [bacitracin] ({Ileψ(thiazoline)Cys}-L[dE]IK[dOrn]I[dF]H[dD]N; lactam 4-C)"
  Inhibition of growth by antibiotic: "inhibited"
- COMPOUND: "[H]/N=C(/N)N[C@H]1[C@H](O)[C@@H](O)[C@H](O[C@@H]2O[C@@H](C)[C@](O)(C=O)[C@H]2O[C@@H]2O[C@@H](CO)[C@H](O)[C@@H](O)[C@@H]2NC)[C@@H](N/C(N)=N\\[H])[C@@H]1O"
  Inhibition of growth by antibiotic: "not inhibited"
- COMPOUND: "CC1(C)S[C@@H]2[C@H](NC(=O)Cc3ccccc3)C(=O)N2[C@H]1C(=O)O"
  Inhibition of growth by antibiotic: "not inhibited"
- COMPOUND: "CO[C@H]1/C=C/O[C@@]2(C)Oc3c(C)c(O)c4c(O)c(c(/C=N/N5CCN(C)CC5)c(O)c4c3C2=O)NC(=O)/C(C)=C\\C=C\\[C@H](C)[C@H](O)[C@@H](C)[C@@H](O)[C@@H](C)[C@H](OC(C)=O)[C@@H]1C"
  Inhibition of growth by antibiotic: "not inhibited"
- COMPOUND: "CC1(C)S[C@@H]2[C@H](NC(=O)[C@H](N)c3ccccc3)C(=O)N2[C@H]1C(=O)O"
  Inhibition of growth by antibiotic: "not inhibited"
- COMPOUND: "CC[C@H]1OC(=O)[C@H](C)[C@@H](O[C@H]2C[C@@](C)(OC)[C@@H](O)[C@H](C)O2)[C@H](C)[C@@H](O[C@@H]2O[C@H](C)C[C@H](N(C)C)[C@H]2O)[C@](C)(O)C[C@@H](C)C(=O)[C@H](C)[C@@H](O)[C@]1(C)O"
  Inhibition of growth by antibiotic: "inhibited"
- COMPOUND: "CO[C@H]1C[C@H](O[C@H]2[C@H](C)[C@@H](O[C@@H]3O[C@H](C)C[C@H](N(C)C)[C@H]3O)[C@@H](C)C[C@@]3(CO3)C(=O)[C@H](C)[C@@H](O)[C@@H](C)[C@@H](C)OC(=O)[C@@H]2C)O[C@@H](C)[C@@H]1O"
  Inhibition of growth by antibiotic: "not inhibited"

Given item `O=C(N[C@H](CO)[C@H](O)c1ccc([N+](=O)[O-])cc1)C(Cl)Cl` , the value recorded as its Inhibition of growth by antibiotic is not inhibited

Given item `CN[C@H](CC(C)C)C(=O)N[C@H]1C(=O)N[C@@H](CC(N)=O)C(=O)N[C@H]2C(=O)N[C@H]3C(=O)N[C@H](C(=O)N[C@H](C(=O)O)c4cc(O)cc(O)c4-c4cc3ccc4O)[C@H](O)c3ccc(c(Cl)c3)Oc3cc2cc(c3O[C@@H]2O[C@H](CO)[C@@H](O)[C@H](O)[C@H]2O[C@H]2C[C@](C)(N)[C@H](O)[C@H](C)O2)Oc2ccc(cc2Cl)[C@H]1O` , the value recorded as its Inhibition of growth by antibiotic is not inhibited
